assay name: Human HepG2 cell viability assay in 384 well format
Format: toxicity, cell-based
Design: dose 125 nL, time 70.5 hour; concentration not given beside the values
assay context: HepG2 cells, read-out: Inhibition
Below, each of the molecules is paired with its reported cytotoxicity at 70.5 h value.

| molecule | cytotoxicity at 70.5 h (%) |
| --- | --- |
| c1cnc(N2CCO[C@H]3CN(CC4CCOC4)C[C@H]32)cn1 (stereo partly drawn) | -2.13 |
| Cc1cc(C)cc(CN2C[C@@H]3OCCN(CC(=O)N(C)C)[C@@H]3C2)c1 | -0.77 |
| OCC1(CC2CC2)CCCN(Cc2cnc(C3CCCCC3)nc2)C1 (stereo not drawn) | -5.05 |
| Cc1nc(CCC(N)=O)cc(C2CCCCN2S(C)(=O)=O)n1 (stereo not drawn) | -1.31 |
| CCCn1ncc2c(C(=O)Nc3n[nH]c(SC)n3)cc(C3CC3)nc21 | 5.71 |
| COc1ccc(C)cc1C(C(=O)O)N1CCN(Cc2ccccn2)CC1 (stereo not drawn) | 3.54 |
| COC(=O)c1cccn1C1CCN(S(=O)(=O)c2ccccc2)CC1 | 3.76 |
| Cn1ccc(NC(=O)CN2CCN(C3CCCC3)C(=O)C2)n1 | -4.86 |
| C=C(C)CNc1nc(CS(=O)(=O)c2ccccc2)cs1 | -2.16 |
| CCN1C[C@@H]2CN(Cc3cccs3)C[C@@H]2C1=O | -10.6 |
| CSc1ccc(NC(=O)NCC(O)C(C)C)cc1F (stereo not drawn) | 4.17 |
| O=C(CN1CCC(c2cccc(F)c2)C1)NCC(F)(F)F (stereo not drawn) | 26.9 |
| O=C(Nc1cccc(CNCc2ccsc2)c1)C1CC1 | 7.14 |
| CSc1c(CC(=O)O)n(C)c2ccccc12 | -0.594 |
| CCCN1CCC(NC(=O)Nc2ccc(OC)c(OC)c2)CC1 | -1.26 |
| CCc1nc(CSc2nnc(N)n2C2CC2)no1 | -7.26 |
| Cc1ccccc1C1(CN)CCCCC1 | 10.6 |
| Cc1ccncc1NS(=O)(=O)c1ccc(Cl)s1 | -3.59 |
| CN(Cc1cn2c(n1)CN(C(=O)c1ccc[nH]1)CC2)Cc1ccco1 | 0.342 |
| Cc1c(C)n(CC(O)CN2CCOCC2)c2c(Cl)cccc12 (stereo not drawn) | 11.2 |
| Cc1cc(C(=O)NCc2ccc(-c3n[nH]cc3C(=O)N(C)C)cc2)on1 | -2.38 |
| Cc1ccsc1-c1cccc(-c2ccn(CC3CCNC3)n2)c1 (stereo not drawn) | 21.5 |
| CC(C)(C)OC(=O)NCC1CCN(C(=O)c2ccc(F)cc2F)C1 (stereo not drawn) | -4.74 |
| CCc1nc(Cn2ccnc2-c2nccn2C)no1 | -7.78 |
| Cc1c(C(=O)N2CCC2(C)C)nnn1-c1cccc2cccnc12 | -3.77 |
| CC(=O)N1CCCN(C(=O)Cc2ccc3c(c2)OCO3)CC1 | -14.3 |
| OC(CN1CCN(Cc2cccc(F)c2)CC1)C1CC1 (stereo not drawn) | -11.3 |
| O=C(NC1CCN(c2ncccc2F)C1)c1cccc(-n2ccnn2)c1 (stereo not drawn) | -6.27 |
| Cc1ccccc1-n1cc(-c2ccnc(N3CCCC(CN)C3)n2)cn1 (stereo not drawn) | -7.47 |
| Cc1nc(CN2CCCN(C(=O)COCC3CC3)CC2)cs1 | -2.01 |
| COc1cc(CNC(C)Cn2ccnc2)cc2c1OCCO2 (stereo not drawn) | 21.5 |
| CCCn1nc2c(cc1=O)CN(c1ncnc3sccc13)CC2 | -10.8 |
| Cn1ncc2c1NC(=O)CC2c1cc(Cl)ccc1F (stereo not drawn) | 47.5 |
| O=C(NCCCNC(=O)c1ccccc1)Nc1ccc(F)cc1F | -4.28 |
| O=C(NCC(O)(c1ccco1)C1CC1)c1c(F)cccc1Cl (stereo not drawn) | -0.808 |
| CCC(C(=O)N(C)Cc1cc(-c2ccccc2)n[nH]1)n1cccn1 (stereo not drawn) | -13.1 |
| CCOCC(=O)N1CCC(CSCc2ccco2)CC1 | -10.8 |
| CCC(C(=O)N1CCCN(CCN(C)C)CC1)N1CCCC1=O (stereo not drawn) | 0.544 |
| CC(NC(=O)NCCCn1ccnc1)c1ccc2c(c1)CCC(=O)N2 (stereo not drawn) | 43.4 |
| O=S(=O)(N1CCOCC1)N1CCC(Oc2cnccn2)CC1 | 0.596 |
| Cc1ccc([C@@H]2CN(C(=O)c3ccoc3C)C[C@H]2NC(=O)C2CC2)cc1 | 30.5 |
| Cc1ccc(CNCc2nnc3n2CC(C(F)(F)F)CC3)o1 (stereo not drawn) | 2.88 |
| CNC(=O)CNC(=O)c1ccc(-c2scnc2C)nc1 | -0.926 |
| Cc1nn(C)c2ncc(S(=O)(=O)N3CCCN4CCCC4C3)cc12 (stereo not drawn) | -2.09 |
| O=C(O)c1cccnc1CN(Cc1ccsc1)C1CC1 | -6.7 |
| O=C(N[C@@H]1CN(C2CCCC2)C[C@@H]2CCCO[C@@H]21)c1cnccn1 | -12.5 |
| CNC(=O)COC1COC2(CCN(Cc3cccnc3OC)CC2)C1 (stereo not drawn) | -8.67 |
| Cc1cccnc1N1CCC(c2nccn2Cc2cscn2)CC1 | -0.624 |
